Recorded values, source the Kinase Knowledgebase extract (Sharma et al. 2016).

// reported inhibition per item
# Target entity: MAPK14 (human)
# Test method notes: Inhibition of LPS Stimulated TNF Production by U937 Cells
# Condition set: concentration not given here
Reply with just the number (in %).

Use these answered entries as a reference point.
Smiles input	Target entity	Unit abbrev	inhibition
C[C@H](NC(=O)c1cccc(Cl)c1)c1[nH]nc(-c2ccc(F)cc2)c1-c1ccncc1	MAPK14 (human)	%	39
C[C@H](NC(=O)c1cccc(F)c1)c1[nH]nc(-c2ccc(F)cc2)c1-c1ccncc1	MAPK14 (human)	%	21
COc1ccc(OC)c(S(=O)(=O)N2CCC(c3[nH]nc(-c4ccc(F)cc4)c3-c3ccncc3)CC2)c1	MAPK14 (human)	%	24
C[C@H](NS(=O)(=O)c1ccc(S(=O)(=O)c2ccccc2)s1)c1[nH]nc(-c2ccc(F)cc2)c1-c1ccncc1	MAPK14 (human)	%	72
O=C(NCc1[nH]nc(-c2ccc(F)cc2)c1-c1ccncc1)c1c(Cl)cc(Cl)cc1Cl	MAPK14 (human)	%	100

QUERY: For "COc1ccc(S(=O)(=O)N[C@@H](C)c2[nH]nc(-c3ccc(F)cc3)c2-c2ccncc2)cc1OC" , what is its reported inhibition?
RESULT: 66

QUERY: Now this one: "O=C(NCc1[nH]nc(-c2ccc(F)cc2)c1-c1ccncc1)c1ccc([N+](=O)[O-])o1"
RESULT: 100

QUERY: Moving on to "O=C(NCc1[nH]nc(-c2ccc(F)cc2)c1-c1ccncc1)C1CCCC1"
RESULT: 13

QUERY: // next record "C[C@H](NC(=O)c1cc(C(F)(F)F)ccc1F)c1[nH]nc(-c2ccc(F)cc2)c1-c1ccncc1"
RESULT: 32

QUERY: Repeat with "Cc1c(-c2ccncc2)c(-c2ccc(F)cc2)nn1CC(=O)N[C@H](C)c1cccc2ccccc12"
RESULT: 23

QUERY: And for "O=S(=O)(NCCc1[nH]nc(-c2ccc(F)cc2)c1-c1ccncc1)c1cccc2cnccc12" ?
RESULT: 91

====

# Target entity: UniProt Q16539
# Sequence (Q16539 whole entry, looked up): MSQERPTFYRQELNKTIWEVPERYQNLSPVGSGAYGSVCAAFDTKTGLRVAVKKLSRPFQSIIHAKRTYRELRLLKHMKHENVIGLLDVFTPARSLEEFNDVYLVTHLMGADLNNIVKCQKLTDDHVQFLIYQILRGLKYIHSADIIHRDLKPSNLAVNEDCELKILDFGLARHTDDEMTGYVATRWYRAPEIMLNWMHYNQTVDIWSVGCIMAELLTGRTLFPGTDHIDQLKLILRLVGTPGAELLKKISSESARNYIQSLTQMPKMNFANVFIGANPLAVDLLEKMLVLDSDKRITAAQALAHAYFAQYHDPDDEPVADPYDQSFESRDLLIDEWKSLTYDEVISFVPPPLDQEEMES
# Test method notes: Inhibition of MAPK14 Kinase Activity by PHAS-I Assay
# Condition set: concentration not given here
Form field: inhibition (one value per entry).
State just the number; it will be interpreted in %.

Compound	Target entity	Observed
CCOC(=O)C(CCSC)NC(=O)NCCc1[nH]nc(-c2ccc(F)cc2)c1-c1ccncc1 (stereo unspecified)	UniProt Q16539	69
CCOC(=O)c1cccc(NC(=O)NCCc2[nH]nc(-c3ccc(F)cc3)c2-c2ccncc2)c1	UniProt Q16539	82
O=C(NCCCc1[nH]nc(-c2ccc(F)cc2)c1-c1ccncc1)c1ccc(I)cc1	UniProt Q16539	66

QUERY: Sample "CC(C)c1ccc(NC(=O)NCCc2[nH]nc(-c3ccc(F)cc3)c2-c2ccncc2)cc1" — what was its inhibition?
RESULT: 50

QUERY: Try the compound "O=C(NCCCc1[nH]nc(-c2ccc(F)cc2)c1-c1ccncc1)C1CCC1"
RESULT: 66

QUERY: // same read-out, input: "Cc1c(-c2ccncc2)c(-c2ccc(F)cc2)nn1CC(=O)N(CC(C)C)CC(C)C"
RESULT: 55

====

# Target entity: MAPK14 (human)
# Test method notes: Inhibition of MAPK14 Kinase Activity by PHAS-I Assay
# Condition set: concentration not given here
Assay metric: inhibition (%)
Just the number please, in %, no unit attached.

Answered cases to consult:
Smiles input	Observed
CCc1cccc(CC)c1NC(=O)Cn1nc(-c2ccc(F)cc2)c(-c2ccncc2)c1C	70
CC[C@H](C)[C@H](NC(=O)Cn1nc(-c2ccc(F)cc2)c(-c2ccncc2)c1C)C(=O)OC	38
O=C(NCCc1[nH]nc(-c2ccc(F)cc2)c1-c1ccncc1)[C@@H]1CCCN1	89

QUERY: Recorded inhibition of "Cc1c(-c2ccncc2)c(-c2ccc(F)cc2)nn1CC(=O)Nc1ccccc1OC(F)(F)F" , please.
RESULT: 91

====

# Target entity: MAPK14 (human)
# Test method notes: Inhibition of LPS Stimulated TNF Production by U937 Cells
# Condition set: concentration not given here
Assay metric: inhibition (%)
Field: numeric (%). Do not append units.

Compound	inhibition / %
O=C(NCCCc1[nH]nc(-c2ccc(F)cc2)c1-c1ccncc1)NCC1CC1	36
Cc1c(-c2ccncc2)c(-c2ccc(F)cc2)nn1CC(=O)N1CCCCC1C[C@@H]1CCCN1C (some centres not stated)	24
CCCS(=O)(=O)NCCc1[nH]nc(-c2ccc(F)cc2)c1-c1ccncc1	35
O=S(=O)(c1c(F)cccc1F)N1CCC(c2[nH]nc(-c3ccc(F)cc3)c2-c2ccncc2)CC1	8
C[C@@H](NS(=O)(=O)c1ccccc1C#N)c1[nH]nc(-c2ccc(F)cc2)c1-c1ccncc1	81

QUERY: Need inhibition of "C[C@@H](NS(=O)(=O)c1cccc2nonc12)c1[nH]nc(-c2ccc(F)cc2)c1-c1ccncc1" , thanks.
RESULT: 96

QUERY: Please do the same for "O=C(Cc1cccs1)NCCc1[nH]nc(-c2ccc(F)cc2)c1-c1ccncc1" as well.
RESULT: 41

QUERY: Similarly, "CCN(CC)CCN(Cc1ccc(Cl)cc1)C(=O)Cn1nc(-c2ccc(F)cc2)c(-c2ccncc2)c1C" ?
RESULT: 10

QUERY: Try this compound next: "C[C@H](NS(=O)(=O)c1cc(Cl)c(Cl)s1)c1[nH]nc(-c2ccc(F)cc2)c1-c1ccncc1"
RESULT: 79

QUERY: Now the compound "CC[C@H](C)NC(=O)Cn1nc(-c2ccc(F)cc2)c(-c2ccncc2)c1C"
RESULT: 38

QUERY: How about this compound: "O=C(NCc1[nH]nc(-c2ccc(F)cc2)c1-c1ccncc1)[C@@H]1C[C@@H]1c1ccccc1"
RESULT: 28

QUERY: Same lookup for "O=C(NCCc1[nH]nc(-c2ccc(F)cc2)c1-c1ccncc1)N1CCOCC1" , please.
RESULT: 34

====

# Target entity: MAPK14 (human)
# Test method notes: Inhibition of LPS Stimulated TNF Production by U937 Cells
Assay metric: IC50

Examples with their reported IC50 follow.
Compound	Target entity	IC50
O=C(NCCCc1[nH]nc(-c2ccc(F)cc2)c1-c1ccncc1)NC1CN2CCC1CC2 (stereo not drawn)	MAPK14 (human)	> 1000 nM
O=C(N[C@H](Cc1ccccc1)c1[nH]nc(-c2ccc(F)cc2)c1-c1ccncc1)C1CC1	MAPK14 (human)	> 1000 nM
Cc1c(-c2ccncc2)c(-c2ccc(F)cc2)nn1CC(=O)Nc1ccccc1OC(F)(F)F	MAPK14 (human)	> 10000 nM
Cn1cc(-c2ccncc2)c(-c2cccc(C(F)(F)F)c2)n1	MAPK14 (human)	402 nM
O=C(c1cccs1)N1CCC(c2[nH]nc(-c3ccc(F)cc3)c2-c2ccncc2)CC1	MAPK14 (human)	370 nM
CNC(=O)CC[C@H](NC(=O)c1ccc(C)cc1)c1[nH]nc(-c2ccc(F)cc2)c1-c1ccncc1	MAPK14 (human)	> 1000 nM

QUERY: Query (compound): "COc1ccc(NC(=O)N2CCC(c3[nH]nc(-c4ccc(F)cc4)c3-c3ccncc3)CC2)c(OC)c1" ; field requested: IC50
RESULT: 440 nM

QUERY: Now the compound "COc1ccc(S(=O)(=O)N[C@@H](Cc2ccccc2)c2[nH]nc(-c3ccc(F)cc3)c2-c2ccncc2)cc1OC"
RESULT: < 1000 nM

====

Below, each of the compounds is paired with its reported inhibition value.
# Target entity: MAPK14 (human)
# Test method notes: Inhibition of LPS Stimulated TNF Production by U937 Cells
# Condition set: concentration not given here
Numeric only. Scale: %

# example entries with known answers
Smiles input	Target entity	Assay metric	Observed
C[C@@H](NC(=O)C1CCCC1)c1[nH]nc(-c2ccc(F)cc2)c1-c1ccncc1	MAPK14 (human)	inhibition	12
C[C@H](NC(=O)[C@@H]1CCCN1)c1[nH]nc(-c2ccc(F)cc2)c1-c1ccncc1	MAPK14 (human)	inhibition	47
O=C(NCCc1[nH]nc(-c2ccc(F)cc2)c1-c1ccncc1)Nc1cccc2ccccc12	MAPK14 (human)	inhibition	39
N#Cc1ccc(C(=O)NCc2[nH]nc(-c3ccc(F)cc3)c2-c2ccncc2)cc1	MAPK14 (human)	inhibition	40
COc1ccc(OC)c(S(=O)(=O)N[C@@H](C)c2[nH]nc(-c3ccc(F)cc3)c2-c2ccncc2)c1	MAPK14 (human)	inhibition	40

QUERY: GET /values?readout=inhibition&item= "O=C(NCc1[nH]nc(-c2ccc(F)cc2)c1-c1ccncc1)Nc1ccccc1-c1ccccc1"
RESULT: 2

QUERY: Please give the result for "C[C@H](NS(=O)(=O)c1cn(C)cn1)c1[nH]nc(-c2ccc(F)cc2)c1-c1ccncc1" too.
RESULT: 74

QUERY: Same thing, different compound: "CCCCOc1ccc(C(=O)NCc2[nH]nc(-c3ccc(F)cc3)c2-c2ccncc2)cc1"
RESULT: 66

QUERY: Try the compound "C[C@@H](NS(=O)(=O)c1ccccc1C(F)(F)F)c1[nH]nc(-c2ccc(F)cc2)c1-c1ccncc1"
RESULT: 70

QUERY: Then "CN(C)C(=O)NCc1[nH]nc(-c2ccc(F)cc2)c1-c1ccncc1" ?
RESULT: 51

QUERY: Another compound to look at: "C[C@@H](NS(=O)(=O)c1cc(Cl)c(Cl)s1)c1[nH]nc(-c2ccc(F)cc2)c1-c1ccncc1"
RESULT: 75

QUERY: Entry to check: "C[C@@H](NC(=O)c1cccc(Cl)c1Cl)c1[nH]nc(-c2ccc(F)cc2)c1-c1ccncc1"
RESULT: 43

QUERY: And "C[C@H](NC(=O)c1cccc(C(F)(F)F)c1F)c1[nH]nc(-c2ccc(F)cc2)c1-c1ccncc1" ?
RESULT: 15

QUERY: Would you kindly repeat that for "COc1ccc(S(=O)(=O)N[C@H](C)c2[nH]nc(-c3ccc(F)cc3)c2-c2ccncc2)cc1OC" ?
RESULT: 25

QUERY: Now the same for "O=C(NCc1[nH]nc(-c2ccc(F)cc2)c1-c1ccncc1)NC(=O)c1ccccc1"
RESULT: 28

QUERY: Try this compound too: "O=C(NCc1[nH]nc(-c2ccc(F)cc2)c1-c1ccncc1)c1ccc(Cl)cc1"
RESULT: 19

QUERY: What would you report for "C[C@H](NC(=O)c1c(F)cc(F)cc1F)c1[nH]nc(-c2ccc(F)cc2)c1-c1ccncc1" ?
RESULT: 68
